Each entry below carries its recorded inhibition at 0.1 µM.
- System: IL-1 production by human monocytes
- Test Name: in vitro IL-1 production by LPS-stimulated human peripheral blood monocytes (EL-4 readout)
- Format: cell-based
- Experimental Context: Homo sapiens, Monocyte; 10^-7 M; read-out: % Inhibition IL-1
# number then unit; no other words

{"Compound": "CC(Cc1ccc(O)c(O)c1)C(C)Cc1ccc(O)c(O)c1 (stereo not shown) [NDGA, nordihydroguaiaretic acid]", "inhibition at 0.1 µM": "31%"}
{"Compound": "O=C1CCN(c2ccccc2)N1", "inhibition at 0.1 µM": "0%"}
{"Compound": "CC(C)Cc1ccc(C(C)C(=O)O)cc1 (stereo not shown)", "inhibition at 0.1 µM": "0%"}

Next item in the queue.
Exercise: Consider the compound Fc1ccc(-c2nc3n(c2-c2ccncc2)CCS3)cc1 and give its measured inhibition at 0.1 µM.
Key: 88%
